Origin of the recorded values: patent US20060035848A1

ASSAY INFO: Cytotoxicity in toxicity control wells of the WNV tests
Format: cell-based
CONDITIONS USED: African green monkey, Vero 76 cells (kidney), uninfected toxicity control wells, ATCC VR-82 columns; NR (Neutral red)
PROPERTY: CC50 at 6 days

[[record]]
compound = "O=c1cnn([C@@H]2O[C@H](CO)[C@@H](O)[C@H]2O)c(=O)[nH]1 [6-aza-U, 6-azauridine, reference compound]"
value_measured = "> 100 µg/mL"

[[record]]
compound = "Nc1nc(=O)n2ccn([C@@H]3O[C@H](CO)[C@@H](O)[C@H]3O)c2n1"
value_measured = "> 100 µg/mL"


====

ASSAY INFO: Cytotoxicity in toxicity control wells of the WNV tests
Type: cell-based
CONDITIONS USED: African green monkey, Vero 76 cells (kidney), uninfected toxicity control wells, New York Isolate columns; Visual
PROPERTY: CC50 at 6 days (µg/mL)

[[record]]
molecule = "Nc1nc(=O)n2ccn([C@@H]3O[C@H](CO)[C@@H](O)[C@H]3O)c2n1"
sign_qualifier = ">"
value_measured = 100

[[record]]
molecule = "O=c1cnn([C@@H]2O[C@H](CO)[C@@H](O)[C@H]2O)c(=O)[nH]1 [6-aza-U, 6-azauridine, reference compound]"
sign_qualifier = "="
value_measured = 85


====

ASSAY INFO: in vitro
CONDITIONS USED: African green monkey
PROPERTY: CC50

[[record]]
compound = "NC(=O)c1ncn([C@@H]2O[C@H](CO)[C@@H](O)[C@H]2O)n1 [Ribavirin, reference compound]"
value_measured = "> 100 µg/mL"

[[record]]
compound = "Nc1nc(=O)n2ccn([C@@H]3O[C@H](CO)[C@@H](O)[C@H]3O)c2n1"
value_measured = "> 100 µg/mL"


====

ASSAY INFO: Cytotoxicity in toxicity control wells of the WNV tests
Format: cell-based
CONDITIONS USED: African green monkey, Vero 76 cells (kidney), uninfected toxicity control wells, New York Isolate columns; NR (Neutral red)
# CC50 at 6 days annotations
PROPERTY: CC50 at 6 days

[[record]]
molecule = "Nc1nc(=O)n2ccn([C@@H]3O[C@H](CO)[C@@H](O)[C@H]3O)c2n1 [ZX-2401]"
value_measured = "> 100 µg/mL"

[[record]]
molecule = "O=c1cnn([C@@H]2O[C@H](CO)[C@@H](O)[C@H]2O)c(=O)[nH]1 [6-aza-U, 6-azauridine, reference compound]"
value_measured = "> 100 µg/mL"


====

ASSAY INFO: in vitro
CONDITIONS USED: African green monkey
# CC50 annotations
PROPERTY: CC50

[[record]]
compound = "NC(=O)c1ncn([C@@H]2O[C@H](CO)[C@@H](O)[C@H]2O)n1 [Ribavirin, reference compound]"
value_measured = "> 100 µg/mL"

[[record]]
compound = "Nc1nc(=O)n2ccn([C@@H]3O[C@H](CO)[C@@H](O)[C@H]3O)c2n1 [ZX-2401]"
value_measured = "> 100 µg/mL"


====

ASSAY INFO: in vitro
CONDITIONS USED: bovine
# CC50 annotations
PROPERTY: CC50

[[record]]
molecule = "Nc1nc(=O)n2ccn([C@@H]3O[C@H](CO)[C@@H](O)[C@H]3O)c2n1 [ZX-2401]"
value_measured = "> 100 µg/mL"

[[record]]
molecule = "NC(=O)c1ncn([C@@H]2O[C@H](CO)[C@@H](O)[C@H]2O)n1 [Ribavirin, reference compound]"
value_measured = "> 100 µg/mL"

